Test: Drug transport assay through polarized TC7 monolayers
Type: in vitro ADME
Settings: human, Caco-2, with verapamil 100 μM, TC7 monolayers, verapamil (100 μM); read-out: % recovery B-A with verapamil
measurement-name: recovery at 10 μM (%)

[[record]]
compound = "NC(=O)c1cccc(-c2cc(OC(=O)NC3CCCCC3)ccc2O)c1 [Compound 1b]"
unit_abbrev = "%"
reported = 94


---

Assay: Drug transport assay through polarized TC7 monolayers
Format: in vitro ADME
Conditions: human, Caco-2, TC7 monolayers, 10 μM compound; read-out: % recovery B-A
measurement-name: recovery at 10 μM (%)

[[record]]
compound = "NC(=O)c1cccc(-c2cc(OC(=O)NC3CCCCC3)ccc2O)c1 [Compound 1b]"
reported = 95

